- measurement.target: human Syk (GST-Syk) (Homo sapiens)
- Construct: A cDNA fragment encoding human Syk openreading frame was cloned; made in house; host or cells: Sf21 insect cells (baculovirus, transfer vector pAcG2T)
- run.description: Syk tyrosine kinase inhibitory assay
- Assay type: biochemical
- experimental.parameters: in vitro; compounds as yielded by solid phase synthesis, purity about 40 to 90%; read-out: Activity grade (IC50 class)
pIC50: −log10 of the molar value.
measure: pIC50

>  <compound>
COc1ccc(-c2cc3nccn3c(Nc3ccc(I)cc3C(N)=O)n2)cc1OC [Example 11-78]

>  <result>
> 6.30

$$$$
>  <compound>
COc1ccc(-c2cc3nccn3c(N(C)CCN(C)C)n2)cc1OC [Example 9-76]

>  <result>
5.00 to 5.70

$$$$
>  <compound>
COc1ccc(-c2cc3nccn3c(Nc3ccccc3OC(F)(F)F)n2)cc1OC [Example 11-10]

>  <result>
5.70 to 6.30

$$$$
>  <compound>
COc1ccc(-c2cc3nccn3c(Nc3ccccc3S(=O)(=O)N(C)C)n2)cc1OC [Example 11-123]

>  <result>
> 6.30

$$$$
>  <compound>
CCOC(=O)CCSc1nc(-c2ccc(OC)c(OC)c2)cc2nccn12 [Example 9-28]

>  <result>
> 6.30

$$$$
>  <compound>
COc1ccc(-c2cc3ncnn3c(Nc3cccc(N)n3)n2)cc1OC [Example 9-16]

>  <result>
> 6.30

$$$$
>  <compound>
CCOC(=O)Cc1ccc(Nc2nc(-c3ccc(OC)c(OC)c3)cc3nccn23)cc1 [Example 9-23]

>  <result>
> 6.30

$$$$
>  <compound>
CCSc1nc(-c2ccc(OC)c(OC3CCCCC3)c2)cc2nccn12 [Example 4-4]

>  <result>
5.70 to 6.30

$$$$
>  <compound>
COc1ccc(-c2cc3nccn3c(Nc3ccc(NCCN4CCOCC4)cc3)n2)cc1OC [Example 11-82]

>  <result>
> 6.30

$$$$
>  <compound>
CCSc1nc(-c2ccc(OC)c(OCCN3CCOCC3)c2)cc2nccn12 [Example 5-12]

>  <result>
5.70 to 6.30

$$$$
>  <compound>
COc1ccc(-c2cc3nccn3c(SCC3CC3)n2)cc1OC [Example 9-7]

>  <result>
> 6.30

$$$$
>  <compound>
COc1ccc(-c2cc3nccn3c(Nc3cccc(O)c3)n2)cc1OC [Example 11-30]

>  <result>
> 6.30

$$$$
>  <compound>
COc1ccc(-c2cc3nccn3c(N3CCN(C(=O)c4ccco4)CC3)n2)cc1OC [Example 9-46]

>  <result>
5.00 to 5.70

$$$$
>  <compound>
COc1ccc(-c2cc3nccn3c(Nc3ccc(OC(F)(F)F)cc3)n2)cc1OC [Example 11-95]

>  <result>
> 6.30

$$$$
>  <compound>
COc1ccc(-c2cc3nccn3c(Nc3cccc4c3C(=O)NC4=O)n2)cc1OC [Example 11-3]

>  <result>
> 6.30

$$$$
>  <compound>
COc1ccc(-c2cc3nccn3c(Nc3ccc(S(N)(=O)=O)cc3)n2)cc1OC [Example 11-76]

>  <result>
> 6.30

$$$$
>  <compound>
CCSc1nc(-c2ccc(OC)c(S(=O)(=O)NCCO)c2)cc2nccn12 [Example 2-2]

>  <result>
> 6.30

$$$$
>  <compound>
CCSc1nc(-c2ccc(OC)cc2)cc2nccn12 [Example 1-5]

>  <result>
5.70 to 6.30

$$$$
>  <compound>
COc1ccc(-c2cc3nccn3c(Sc3nccn3C)n2)cc1OC [Example 13-12]

>  <result>
> 6.30

$$$$
>  <compound>
COc1ccc(-c2cc3nccn3c(Sc3ccc(N)cc3)n2)cc1OC [Example 13-4]

>  <result>
> 6.30

$$$$
>  <compound>
COc1ccc(-c2cc3nccn3c(N(C)c3cccc(Cl)c3)n2)cc1OC [Example 11-50]

>  <result>
> 6.30

$$$$
>  <compound>
COc1ccc(-c2cc3nccn3c(N3CC[C@H](N(C)C)C3)n2)cc1OC [Example 9-78]

>  <result>
5.00 to 5.70

$$$$
>  <compound>
COc1ccc(-c2cc3nccn3c(Nc3ccccc3C(=O)NN)n2)cc1OC [Example 11-13]

>  <result>
5.00 to 5.70

$$$$
>  <compound>
CCSc1nc(-c2ccc(OC(C)=O)c(OC)c2)cc2nccn12 [Example 3-7]

>  <result>
> 6.30

$$$$
>  <compound>
COc1ccc(-c2cc3nccn3c(N3CCC(C#N)(c4ccccc4)CC3)n2)cc1OC [Example 9-68]

>  <result>
5.00 to 5.70

$$$$
>  <compound>
COc1ccc(-c2cc3nccn3c(Nc3cccc(N)c3)n2)cc1OC [Example 11-124]

>  <result>
> 6.30

$$$$
>  <compound>
CCSc1nc(-c2ccc(OC)c(OS(C)(=O)=O)c2)cc2nccn12 [Example 4-9]

>  <result>
5.70 to 6.30

$$$$
